Values from patent US11524966B1

Target: USP25 (USP25-His6, Boston Biochem E-546) (Homo sapiens, UniProt Q9UHP3)
Construct: His6; purchased Boston Biochem E-546
Sequence (Q9UHP3 whole entry): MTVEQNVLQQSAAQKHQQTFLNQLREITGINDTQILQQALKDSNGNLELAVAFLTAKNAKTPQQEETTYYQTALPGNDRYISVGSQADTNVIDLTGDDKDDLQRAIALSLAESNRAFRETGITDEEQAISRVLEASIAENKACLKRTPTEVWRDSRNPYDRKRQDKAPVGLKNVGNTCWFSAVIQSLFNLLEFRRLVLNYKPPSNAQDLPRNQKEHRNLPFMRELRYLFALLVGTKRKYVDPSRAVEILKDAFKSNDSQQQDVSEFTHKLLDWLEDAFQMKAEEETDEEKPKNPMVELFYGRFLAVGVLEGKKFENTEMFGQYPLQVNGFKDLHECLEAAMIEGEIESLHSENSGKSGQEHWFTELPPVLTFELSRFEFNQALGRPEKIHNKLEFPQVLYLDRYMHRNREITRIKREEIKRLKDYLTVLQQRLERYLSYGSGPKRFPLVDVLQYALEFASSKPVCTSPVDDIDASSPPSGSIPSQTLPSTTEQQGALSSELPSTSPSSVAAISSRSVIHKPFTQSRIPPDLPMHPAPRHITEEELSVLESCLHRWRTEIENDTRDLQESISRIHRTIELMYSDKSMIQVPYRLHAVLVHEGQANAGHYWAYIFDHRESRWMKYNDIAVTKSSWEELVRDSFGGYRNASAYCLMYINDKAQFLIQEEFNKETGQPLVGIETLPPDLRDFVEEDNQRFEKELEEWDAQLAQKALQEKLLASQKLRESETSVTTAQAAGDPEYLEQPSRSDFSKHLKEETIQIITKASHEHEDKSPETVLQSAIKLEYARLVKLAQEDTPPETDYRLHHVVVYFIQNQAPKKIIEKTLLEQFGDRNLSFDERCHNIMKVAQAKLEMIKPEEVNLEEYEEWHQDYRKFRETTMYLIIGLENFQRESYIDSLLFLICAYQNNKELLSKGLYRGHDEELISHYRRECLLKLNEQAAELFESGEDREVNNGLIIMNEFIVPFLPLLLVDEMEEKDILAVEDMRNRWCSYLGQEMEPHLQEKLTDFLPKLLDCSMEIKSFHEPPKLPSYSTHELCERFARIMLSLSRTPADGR
Assay: Ubiquitin-Rhodamine 110 Assay for USP25 Activity, Example A-2
Type: biochemical
Conditions: Ub-Rh110 assay, Example A-2; read-out: USP25 A-2 IC50 range
pIC50: −log10 of the molar value.
The reader will find reported pIC50 values listed item by item below.
Measurement Name: pIC50

Compound	Assay Result
Cc1ccc2c(N)c(C(=O)N[C@H]3COc4cc(N5CCNC[C@H]5C)ccc4C3)sc2n1	7.30 to 9.00
Cc1ccc2c(N)c(C(=O)N[C@H]3COc4cc(N5CCNCC56COC6)ccc4C3)sc2n1	6.70 to 7.30
CCn1ccc2cc(C(=O)N[C@H]3COc4cc(N5CC6CCC(C5)N6)ccc4C3)cnc21 (single isomer, unassigned)	6.70 to 7.30
Cc1nc2sc(C(=O)N[C@H]3COc4cc(N5CC6CCC(C5)N6)cc(F)c4C3)c(N)c2s1 (single isomer, unassigned)	5.70 to 6.70

---

Target: USP28 (USP28-5(1-1077)-TEV-6*His; LifeSensors) (Homo sapiens, UniProt Q96RU2)
Construct: construct USP28 (USP28-5(1-1077)-TEV-6*His; LifeSensors); TEV cleavage site (C); 6xHis (C); purchased LifeSensors
Sequence (Q96RU2 whole entry): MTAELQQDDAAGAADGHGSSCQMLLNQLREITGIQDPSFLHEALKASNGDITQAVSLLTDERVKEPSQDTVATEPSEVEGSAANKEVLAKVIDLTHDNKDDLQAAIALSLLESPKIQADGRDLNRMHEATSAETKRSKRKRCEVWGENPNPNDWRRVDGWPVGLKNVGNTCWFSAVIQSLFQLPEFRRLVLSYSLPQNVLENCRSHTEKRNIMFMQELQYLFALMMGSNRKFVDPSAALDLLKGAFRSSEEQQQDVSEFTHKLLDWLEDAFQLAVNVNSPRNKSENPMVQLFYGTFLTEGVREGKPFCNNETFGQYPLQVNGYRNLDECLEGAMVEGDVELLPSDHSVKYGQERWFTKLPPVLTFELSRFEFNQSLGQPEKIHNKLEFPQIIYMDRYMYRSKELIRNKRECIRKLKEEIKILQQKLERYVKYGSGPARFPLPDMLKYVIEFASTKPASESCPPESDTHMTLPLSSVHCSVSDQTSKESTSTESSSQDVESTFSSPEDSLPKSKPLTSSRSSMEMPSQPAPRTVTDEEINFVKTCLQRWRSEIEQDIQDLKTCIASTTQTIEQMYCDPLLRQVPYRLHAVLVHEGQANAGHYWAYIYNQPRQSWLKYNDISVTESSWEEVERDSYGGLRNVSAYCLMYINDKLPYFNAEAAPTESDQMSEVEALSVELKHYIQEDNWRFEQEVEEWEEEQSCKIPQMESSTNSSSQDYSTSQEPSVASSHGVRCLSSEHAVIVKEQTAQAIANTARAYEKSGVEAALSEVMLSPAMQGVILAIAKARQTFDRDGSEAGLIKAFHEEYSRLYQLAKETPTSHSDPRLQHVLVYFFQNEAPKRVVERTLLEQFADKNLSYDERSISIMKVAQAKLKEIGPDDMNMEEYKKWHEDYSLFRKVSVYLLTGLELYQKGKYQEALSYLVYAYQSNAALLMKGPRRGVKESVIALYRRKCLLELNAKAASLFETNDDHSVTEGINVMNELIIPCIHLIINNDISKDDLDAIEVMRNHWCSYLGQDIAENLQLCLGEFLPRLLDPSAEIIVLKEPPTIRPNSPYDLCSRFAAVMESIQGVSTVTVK
Assay: Ubiquitin-Rhodamine 110 Assay for USP28 Activity, Example A-1(b)
Type: biochemical
Details: Ub-Rh110 assay, Example A-1(b)
Measurement Name: USP28 A-1(b) IC50 range

Compound	Assayed Target	Measurement Name	Assay Result
Cc1ccc2c(N)c(C(=O)N[C@H]3COc4cc(N5CCNCC5)ccc4C3)sc2n1 (single isomer, unassigned)	USP28 (USP28-5(1-1077)-TEV-6*His; LifeSensors) (Homo sapiens, UniProt Q96RU2)	USP28 A-1(b) IC50 range	+++ (0.05-0.2 μM)
Cc1cnc2c(N)c(C(=O)N[C@H]3COc4cc(N5CC6CNCC(C5)O6)ccc4C3)sc2n1	USP28 (USP28-5(1-1077)-TEV-6*His; LifeSensors) (Homo sapiens, UniProt Q96RU2)	USP28 A-1(b) IC50 range	++ (0.2-2 μM)
Cc1cnc2c(N)c(C(=O)N[C@H]3COc4cc(N5CCNCC5)ccc4C3)sc2n1 (single isomer, unassigned)	USP28 (USP28-5(1-1077)-TEV-6*His; LifeSensors) (Homo sapiens, UniProt Q96RU2)	USP28 A-1(b) IC50 range	++ (0.2-2 μM)
Cc1ccc2c(N)c(C(=O)N[C@@H]3COc4cc(N5CCNCC5)ccc4C3)sc2n1 (single isomer, unassigned)	USP28 (USP28-5(1-1077)-TEV-6*His; LifeSensors) (Homo sapiens, UniProt Q96RU2)	USP28 A-1(b) IC50 range	+ (>2 μM)
Cc1ccc2c(N)c(C(=O)N[C@@H]3COc4cc(N5CCN[C@H](C)[C@H]5C)ccc4C3)sc2n1 (single isomer, unassigned)	USP28 (USP28-5(1-1077)-TEV-6*His; LifeSensors) (Homo sapiens, UniProt Q96RU2)	USP28 A-1(b) IC50 range	++++ (0.001-0.05 μM)
Cc1ccc2c(N)c(C(=O)N[C@H]3COc4cc(N5CC6CCCC(C5)N6)ccc4C3)sc2n1 (single isomer, unassigned)	USP28 (USP28-5(1-1077)-TEV-6*His; LifeSensors) (Homo sapiens, UniProt Q96RU2)	USP28 A-1(b) IC50 range	++++ (0.001-0.05 μM)
CCn1ccc2cc(C(=O)N[C@H]3COc4cc(N5CC6CCC(C5)N6)ccc4C3)cnc21 (single isomer, unassigned)	USP28 (USP28-5(1-1077)-TEV-6*His; LifeSensors) (Homo sapiens, UniProt Q96RU2)	USP28 A-1(b) IC50 range	+++ (0.05-0.2 μM)
Cc1ccc2c(N)c(C(=O)N[C@@H]3COc4cc(N5CC6CCC(C5)N6)ccc4C3)sc2n1 (single isomer, unassigned)	USP28 (USP28-5(1-1077)-TEV-6*His; LifeSensors) (Homo sapiens, UniProt Q96RU2)	USP28 A-1(b) IC50 range	++ (0.2-2 μM)
O=C(N[C@H]1COc2cc(N3CC4CCC(C3)N4)ccc2C1)c1ccc(NCc2ccccc2)nc1	USP28 (USP28-5(1-1077)-TEV-6*His; LifeSensors) (Homo sapiens, UniProt Q96RU2)	USP28 A-1(b) IC50 range	++ (0.2-2 μM)
Cc1cnc2c(N)c(C(=O)N[C@@H]3CCc4cc(N5CCNCC5)c(C)cc4C3)sc2n1 (single isomer, unassigned)	USP28 (USP28-5(1-1077)-TEV-6*His; LifeSensors) (Homo sapiens, UniProt Q96RU2)	USP28 A-1(b) IC50 range	+ (>2 μM)
Cc1ccc2c(N)c(C(=O)N[C@H]3COc4cc(N5CC6CCC(C5)N6)ccc4C3)sc2n1 (single isomer, unassigned)	USP28 (USP28-5(1-1077)-TEV-6*His; LifeSensors) (Homo sapiens, UniProt Q96RU2)	USP28 A-1(b) IC50 range	+++ (0.05-0.2 μM)
Cc1ccc2c(N)c(C(=O)N[C@@H]3COc4cc(N5CCN[C@@H](C)[C@@H]5C)ccc4C3)sc2n1 (single isomer, unassigned)	USP28 (USP28-5(1-1077)-TEV-6*His; LifeSensors) (Homo sapiens, UniProt Q96RU2)	USP28 A-1(b) IC50 range	++ (0.2-2 μM)
Cc1ccc2c(N)c(C(=O)N[C@H]3COc4cc(N5CCC[C@@](N)(C(F)(F)F)C5)ccc4C3)sc2n1 (single isomer, unassigned)	USP28 (USP28-5(1-1077)-TEV-6*His; LifeSensors) (Homo sapiens, UniProt Q96RU2)	USP28 A-1(b) IC50 range	++++ (0.001-0.05 μM)

---

Target: USP28 (USP28-5(1-1077)-TEV-6*His; LifeSensors) (Homo sapiens)
Construct: construct USP28 (USP28-5(1-1077)-TEV-6*His; LifeSensors); TEV cleavage site (C); 6xHis (C); purchased LifeSensors
Test: Ubiquitin-Rhodamine 110 Assay for USP28 Activity, Example A-1(b)
Type: biochemical
Settings: Ubiquitin-Rhodamine 110 assay, format Example A-1(b)
Measurement Name: USP28 A-1(b) IC50 range

Compound	Measurement Name	Assay Result
Cc1cnc2c(N)c(C(=O)N[C@@H]3CCc4cc(N5CCNCC5)cc(F)c4C3)sc2n1 (single isomer, unassigned)	USP28 A-1(b) IC50 range	+ (>2 μM)
Cc1ccc2c(N)c(C(=O)N[C@@H]3COc4c(ccc(N5CCNCC5)c4Cl)C3)sc2n1	USP28 A-1(b) IC50 range	+ (>2 μM)
Cc1ccc2c(N)c(C(=O)N[C@H]3COc4c(ccc(N5CCNCC5)c4Cl)C3)sc2n1	USP28 A-1(b) IC50 range	+++ (0.05-0.2 μM)
Cc1cnc2c(N)c(C(=O)N[C@H]3CCc4cc(N5C[C@H]6C[C@@H]5CN6)ccc4C3)sc2n1 (single isomer, unassigned)	USP28 A-1(b) IC50 range	++ (0.2-2 μM)
Cc1ccc2c(N)c(C(=O)N[C@H]3COc4cc(N5CC6CCC(C5)N6)c(F)c(F)c4C3)sc2n1	USP28 A-1(b) IC50 range	+ (>2 μM)
Cc1ccc2c(N)c(C(=O)N[C@@H]3CCc4cc(N5CC6CCC(C5)N6)c(C#N)cc4C3)sc2n1 (single isomer, unassigned)	USP28 A-1(b) IC50 range	++ (0.2-2 μM)
Cc1nc2sc(C(=O)N[C@@H]3CCc4cc(N5CC6CCC(C5)N6)ccc4C3)c(N)c2s1 (single isomer, unassigned)	USP28 A-1(b) IC50 range	++ (0.2-2 μM)
Cc1cnc2c(N)c(C(=O)N[C@@H]3CCc4cc(N5C[C@H]6C[C@@H]5CN6)ccc4C3)sc2n1 (single isomer, unassigned)	USP28 A-1(b) IC50 range	++ (0.2-2 μM)
Cc1ccc2c(N)c(C(=O)N[C@@H]3CCc4cc(N5CCNCC5)c(F)cc4C3)sc2n1 (single isomer, unassigned)	USP28 A-1(b) IC50 range	+++ (0.05-0.2 μM)
Cc1nc2sc(C(=O)N[C@H]3CCc4cc(N5CC6CCC(C5)N6)ccc4C3)c(N)c2s1 (single isomer, unassigned)	USP28 A-1(b) IC50 range	+ (>2 μM)
Cc1ccc2c(N)c(C(=O)N[C@@H]3CCc4c(ccc(N5CC6CCC(C5)N6)c4F)C3)sc2n1 (single isomer, unassigned)	USP28 A-1(b) IC50 range	++ (0.2-2 μM)

---

Target: USP28 (USP28-5(1-1077)-TEV-6*His; LifeSensors) (Homo sapiens, UniProt Q96RU2)
Construct: construct USP28 (USP28-5(1-1077)-TEV-6*His; LifeSensors); TEV cleavage site (C); 6xHis (C); purchased LifeSensors
Test: Ubiquitin-Rhodamine 110 Assay for USP28 Activity, Example A-1(b)
Format: biochemical
Conditions: Ubiquitin-Rhodamine 110 assay, Example A-1(b)
Excerpt: Example A-1(b): Biochemical Assay: Ubiquitin-Rhodamine 110 Assay for USP28 Activity […] For assay formats Example A-1(a), A-1(b), and A-2, data were reported as percent inhibition compared with control wells based on the following equation: % inh=1−((FLU−AveLow)/(AveHigh−AveLow)) where FLU=measured Fluorescence, AveLow=average Fluorescence of no enzyme control (n=16), and AveHigh=average Fluorescence of DMSO control (n=16). […]

Compound	Assayed Target	USP28 A-1(b) IC50 range
Cc1ccc2c(N)c(C(=O)N[C@H]3COc4cc(N5C[C@H]6CNC[C@@H]6C5)ccc4C3)sc2n1 [Example 43]	USP28 (USP28-5(1-1077)-TEV-6*His; LifeSensors) (Homo sapiens, UniProt Q96RU2)	+ (>2 μM)
Cc1ccc2c(N)c(C(=O)N[C@H]3COc4cc(O[C@@H]5COC6(CNC6)C5)ccc4C3)sc2n1 (single isomer, unassigned) [Example 9-1]	USP28 (USP28-5(1-1077)-TEV-6*His; LifeSensors) (Homo sapiens, UniProt Q96RU2)	+++ (0.05-0.2 μM)
Cc1ccc2c(N)c(C(=O)N[C@H]3COc4cc(N5CC[C@@H](C(=O)O)C5)ccc4C3)sc2n1 [Example 6-2]	USP28 (USP28-5(1-1077)-TEV-6*His; LifeSensors) (Homo sapiens, UniProt Q96RU2)	++ (0.2-2 μM)
Cc1cnc2c(N)c(C(=O)N[C@H]3CCc4cc(N5CC(C(=O)O)C5)ccc4C3)sc2n1 [Example 6-4]	USP28 (USP28-5(1-1077)-TEV-6*His; LifeSensors) (Homo sapiens, UniProt Q96RU2)	+ (>2 μM)
Cc1nc2sc(C(=O)N[C@H]3COc4c(F)c(N5CCNCC5)cc(F)c4C3)c(N)c2s1 [Example 56]	USP28 (USP28-5(1-1077)-TEV-6*His; LifeSensors) (Homo sapiens, UniProt Q96RU2)	+++ (0.05-0.2 μM)
O=C(N[C@H]1COc2cc(N3CCNCC3)ccc2C1)c1cnc2c(ccn2C(F)F)c1 [Example 38]	USP28 (USP28-5(1-1077)-TEV-6*His; LifeSensors) (Homo sapiens, UniProt Q96RU2)	+ (>2 μM)
Cc1ccc2c(N)c(C(=O)N[C@H]3COc4cc(N5CC[C@]6(CCCNC6)C5)ccc4C3)sc2n1 [Example 3-13]	USP28 (USP28-5(1-1077)-TEV-6*His; LifeSensors) (Homo sapiens, UniProt Q96RU2)	+++ (0.05-0.2 μM)
Cc1ccc2c(N)c(C(=O)N[C@@H]3COc4cc(N5C[C@H]6CNC[C@@H]6C5)ccc4C3)sc2n1 [Example 44]	USP28 (USP28-5(1-1077)-TEV-6*His; LifeSensors) (Homo sapiens, UniProt Q96RU2)	+ (>2 μM)
Cc1ccc2c(N)c(C(=O)N[C@@H]3CCc4cc(N5CCN[C@@H](CO)C5)ccc4C3)sc2n1 (single isomer, unassigned) [Example 7-11]	USP28 (USP28-5(1-1077)-TEV-6*His; LifeSensors) (Homo sapiens, UniProt Q96RU2)	++ (0.2-2 μM)
Cc1cnc2c(N)c(C(=O)N[C@H]3CCc4cc(N5CC6COCC(C5)N6)ccc4C3)sc2n1 [Example 456]	USP28 (USP28-5(1-1077)-TEV-6*His; LifeSensors) (Homo sapiens, UniProt Q96RU2)	++ (0.2-2 μM)
Cc1ccc2c(N)c(C(=O)N[C@@H]3COc4cc(N5CCNCC5)ccc4[C@@H]3C)sc2n1 (single isomer, unassigned) [Example 11-18]	USP28 (USP28-5(1-1077)-TEV-6*His; LifeSensors) (Homo sapiens, UniProt Q96RU2)	+ (>2 μM)
CCn1ccc2cc(C(=O)N[C@H]3CCc4cc(N5CC6CCC(C5)N6)ccc4C3)cnc21 (single isomer, unassigned) [Example 11-9]	USP28 (USP28-5(1-1077)-TEV-6*His; LifeSensors) (Homo sapiens, UniProt Q96RU2)	+ (>2 μM)
Cc1ccc2c(N)c(C(=O)N[C@H]3CCc4cc(N5CCNCC5)cc(F)c4C3)sc2n1 (single isomer, unassigned) [Example 11-11]	USP28 (USP28-5(1-1077)-TEV-6*His; LifeSensors) (Homo sapiens, UniProt Q96RU2)	+ (>2 μM)
O=C(N[C@H]1COc2cc(N3CCNCC3)ccc2C1)c1cnn2c(Br)cccc12 [Example 457]	USP28 (USP28-5(1-1077)-TEV-6*His; LifeSensors) (Homo sapiens, UniProt Q96RU2)	++ (0.2-2 μM)
